Where these numbers come from: PubChem BioAssay (EPA / NIEHS)

read-out: Interferon-gamma inducible Protein 10 (IP10), CXCL10 (gene 3627); test: BSK_BE3C_IP10: BioMAP Diversity Plus: BE3C Assay for Interferon-gamma inducible Protein 10 (IP10) Biomarker Activity (AID 2283034); conditions: primary human bronchial epithelial cells; actives raise or lower the signal
The source made the active and inactive calls. Rule for the calls: active = hit-call score of the fitted dose curve at least 0.9, where 1 is the maximum; inactive = score below 0.9.

[
  {
    "molecule": "CCCCCc1ccc(N)cc1",
    "AC50": "inactive"
  },
  {
    "molecule": "Oc1ccc2ccccc2c1",
    "AC50": "32.5 µM (active)"
  },
  {
    "molecule": "CN(C[C@@H](CC[N+]12CCC(C3CCCCC3)(CC1)CC2)c1ccc(Cl)c(Cl)c1)C(=O)c1cc(C(F)(F)F)cc(C(F)(F)F)c1",
    "AC50": "13.1 µM (active)"
  },
  {
    "molecule": "C[C@]12CC[C@@H]3c4ccc(O)cc4CC[C@H]3[C@@H]1CCC2=O",
    "AC50": "inactive"
  },
  {
    "molecule": "c1ccc2n[nH]nc2c1",
    "AC50": "inactive"
  },
  {
    "molecule": "CC(O)CC(C)(C)O (configuration not stated)",
    "AC50": "inactive"
  },
  {
    "molecule": "CN(C)C(=O)C1(N2CCCCC2)CCN(CC[C@@]2(c3ccc(Cl)c(Cl)c3)CN(C(=O)c3ccccc3)CCO2)CC1",
    "AC50": "16.4 µM (active)"
  },
  {
    "molecule": "O=C(OCCCCCCOC(=O)c1ccccc1)c1ccccc1",
    "AC50": "inactive"
  },
  {
    "molecule": "Cc1occc1C(=O)Nc1ccc(C(=O)N2CCC(F)(F)/C(=C\\C(=O)N3CCC(N4CCCCC4)CC3)c3ccccc32)cc1",
    "AC50": "inactive"
  },
  {
    "molecule": "Cc1cn([C@H]2C[C@H](N=[N+]=[N-])[C@@H](CO)O2)c(=O)[nH]c1=O",
    "AC50": "inactive"
  },
  {
    "molecule": "Clc1cc(Cl)c2c(c1)N=C1CCCCCN1C2",
    "AC50": "inactive"
  },
  {
    "molecule": "CCCCCCCCCCCCO",
    "AC50": "30.8 µM (active)"
  }
]
